test system: SNB-75; test: NCI tumour cell line growth inhibition, 48 h
The source made the active and inactive calls. Rule as the data show it: active = GI50 up to about 1.1 µM and inactive = higher.
Could you please pick one outcome from this set? active, inactive

C=C(C1=CC(=O)C(C)(C)O1)[C@@H]1CC=C([C@@H]2CC[C@H]3[C@@]2(C)CC[C@H]2C(C)(C)C(=O)[C@H](O)C[C@]32C)[C@H](O)O1 ... inactive
CC(C)/C=N\N1C(N)=C(C#N)C(C#N)(C#N)C1C(C)C (stereo not given) ... inactive
Cc1c2cnccc2nc2[nH]c3ccncc3c12 ... inactive

Q: // param item: "O=C(Cn1c2ccc(Br)cc2c2nc3ccccc3nc21)NC1CCCCC1" ; yields the recorded call
Result: inactive

Q: // param item: CC(=O)O[C@@]12CO[C@@H]1CC(O)[C@@]1(C)C(=O)[C@H](O)C3=C(C)C(O)C[C@@](O)(C(OC(=O)c4ccccc4)C12)C3(C)C (stereo not given in full) ; yields the recorded call
Result: active

====

test system: M14; test: NCI tumour cell line growth inhibition, 48 h
Calls of active or inactive are those of the source. No stated cut-off is given here; in the data, active = GI50 up to about 1.1 µM and inactive = higher.
MEASURE_NAME: GI50

CC[C@]1(Cc2ccc(OC)c(OC)c2)C=[N+]([O-])O[C@H](OC2CCCCC2c2ccccc2)[C@@H]1OC(C)=O (some centres undefined) ... 45.3 µM (inactive)
CC1(C)CCC2(C(=O)OC3OC(CO)C(O)C(O)C3O)CCC3(C)C(=CCC4C5(C)CCC(OC6OC(CO)C(O)C(O)C6O)C(C)(C)C5CCC43C)C2C1 (centres undefined) ... 14.8 µM (inactive)
NC(=O)NNC(=O)NC12CC3CC(CC(C3)C1)C2 ... > 100 µM (inactive)
CC1=NNC(=O)C1C1(C(=O)O)CC(c2c[nH]c3ccccc23)=NC(=S)N1 (centres undefined) ... 16.9 µM (inactive)
C[C@]12CC[C@@H]3c4ccc(O)cc4CC[C@H]3[C@@H]1CC[C@@H]2OP(=O)(O)O ... > 100 µM (inactive)
N#CC(NCCc1ccccc1)c1ccccc1 (centres undefined) ... > 100 µM (inactive)
CCOC(=O)NC(Nc1cccc(F)c1)(C(F)(F)F)C(F)(F)F ... > 100 µM (inactive)
COC(=O)C1=C(C(=O)OC)C2(C)CCC(=O)C1O2 (centres undefined) ... > 10 µM (inactive)

Please examine the following record next.
Q: Requested read-out: GI50. Entry: "COc1ccc(C(=O)CC2=Nc3nnc(CCCCCCCc4nnc5n4C(=O)C(CC(=O)c4ccc(OC)cc4)=N5)n3C2=O)cc1"
Result: > 100 µM (inactive)

====

Below, each of the molecules is paired with its reported GI50 value.
system: HOP-62; experiment: NCI tumour cell line growth inhibition, 48 h
Counter-ions that a name gives are not always drawn. Activity calls are given as the source filed them. No stated cut-off is given here; in the data, active = GI50 up to about 1.1 µM and inactive = higher.

Check out these entries, answers already filled in.
COC(=O)C1=CCC2c3[nH]c4ccccc4c3CCN2C1 (centres undefined) ... > 354 µM (inactive)
NCCc1c[nH]c2ccc(OC(=O)C(=O)O)cc12 ... > 100 µM (inactive)
COC(=O)C1=CO[C@@H](C)[C@@H]2Cn3ccc4c5ccccc5nc-4c3C[C@H]12 [ALSTONINE HYDROCHLORIDE] ... > 100 µM (inactive)
O=C(CSc1nc(-c2ccccc2)c(-c2ccccc2)[nH]1)NNC(=S)Nc1ccccc1 ... > 100 µM (inactive)
CO/C=C(/C(=O)OC)c1ccccc1COc1cccc(C(F)(F)F)c1 ... 12.6 µM (inactive)
C[C@]12CCC(=O)C(O)=C1CC[C@@H]1[C@@H]2CC[C@]2(C)C(=O)CC[C@@H]12 ... > 100 µM (inactive)

Q: Identify the measured GI50 of CC(NNC(=O)c1ccc[n+]([BH2-]C#N)c1)c1ccccc1 (centres undefined) for HOP-62.
Result: > 100 µM (inactive)

Q: Identify the measured GI50 of O=c1[nH]c(=O)n(C2OC(CO)C(O)C2O)c2ncc(-c3ccc(-c4ccccc4)cc3)nc12 (centres undefined) for HOP-62.
Result: > 20 µM (inactive)

Q: Identify the measured GI50 of COC(=O)C(Cc1ccccc1)NP(=O)(O)OCC1OC(n2cc(I)c(=O)[nH]c2=O)CC1O (centres undefined) for HOP-62.
Result: > 100 µM (inactive)

====

tested on: HL-60; test: NCI tumour cell line growth inhibition, 48 h
The source made the active and inactive calls. No stated cut-off is given here; in the data, active = GI50 up to about 1.1 µM and inactive = higher.
Below, each of the molecules is paired with its reported GI50 value.

O=C(CC(C(=O)c1cccs1)c1ccc2c(c1)OCO2)c1ccc(Br)cc1 (centres undefined) ... > 100 µM (inactive)

Q: Requested read-out: GI50. Entry: OCCN=C1c2ccccc2C2C(c3ccccc31)C1c3ccccc3C(=NCCO)c3ccccc3C21 (centres undefined)
Result: 13.9 µM (inactive)

Q: Requested read-out: GI50. Entry: "Cc1ccc(NC(=O)CSc2nc(O)nc3[nH]cnc23)cc1"
Result: > 100 µM (inactive)

Q: Requested read-out: GI50. Entry: "COc1cc2c3c(c1)c1cc(OC)c(OC)cc1c[n+]3CC2"
Result: > 50 µM (inactive)

Q: Requested read-out: GI50. Entry: "C=C(C)CCN[Si](c1ccccc1)(c1ccccc1)C(C)(C)C"
Result: 20.1 µM (inactive)

Q: Requested read-out: GI50. Entry: "Cc1c(C)c(C)c(-n2c(=O)n(C)c(=O)n2C(C)(C)C)c(C)c1C"
Result: 40.3 µM (inactive)

====

tested on: LOX IMVI; assay: NCI tumour cell line growth inhibition, 48 h
Calls of active or inactive are those of the source. No stated cut-off is given here; in the data, active = GI50 up to about 1.1 µM and inactive = higher.
Could you please pick one outcome from this set? YES (active), NO (inactive)

Example entries begin here.
CCOC(=O)C1=C(C)N(C2OC(COC(=O)c3ccccc3)C(OC(=O)c3ccccc3)C2OC(=O)c2ccccc2)C(=S)NC1c1ccccc1 (stereo not given) ... NO
Cc1cc(OC(=O)Nc2ccc(Cl)cc2)ccc1C(=S)Nc1ccccc1 ... NO
Cc1ccc(Nc2n[nH]c(NS(=O)(=O)c3cc(C(=O)Nc4ccc(Cl)cc4)c(Cl)cc3S)n2)cc1 ... NO
O=C(/C=C/C(Cl)(Cl)Cl)Nc1ccc(Cl)cc1 ... YES

Q: // param item: "COc1ccc2nccc(NCCCN3CCN(CCCNc4ccnc5ccc(OC)cc45)CC3)c2c1" ; yields the recorded call
Result: YES

Q: // param item: O=C1ON(Cc2ccccc2)C(c2ccccc2)N1c1ccccc1 (stereo not given) ; yields the recorded call
Result: NO

Q: // param item: "CNC(=S)N/N=C/c1cccc(C)n1" ; yields the recorded call
Result: NO

Q: // param item: "CCOC(=O)Nc1nn[nH]c1Cl" ; yields the recorded call
Result: NO

====

Below, each of the molecules is paired with its reported GI50 value.
test system: NCI-H226; assay: NCI tumour cell line growth inhibition, 48 h
Active and inactive are the calls of the source. Cut-off read from the data, not from the text of the source: active = GI50 up to about 1.1 µM and inactive = higher.

COc1ccc(-c2cc(-c3cc(OC)c(OC)c(OC)c3)cc(-c3cc4ccccc4oc3=O)n2)cc1 ... 3.95 µM (inactive)
CC(C)(C)c1cc(C(O)(C(F)(F)F)C(F)(F)F)c2c(c1)C(C(F)(F)F)(C(F)(F)F)OC(C(C)(C)C)N2 (centres undefined) ... 2.7 µM (inactive)
COc1ccc(N2C(=O)C(=O)N(c3ccc(/N=N\c4ccccc4)cc3)C2=S)cc1 ... 21.7 µM (inactive)

Q: Identify the measured GI50 of "Nc1cccc(Nc2nc3ccccc3nc2NS(=O)(=O)c2ccccc2)c1" for NCI-H226.
Result: 38 µM (inactive)

Q: Identify the measured GI50 of CC[C@]12CCCN3CCc4c(n(c5ccccc45)C(=O)C1)[C@@H]32 [VINBURNINE] for NCI-H226.
Result: > 83.8 µM (inactive)

====

tested on: 786-0; assay: NCI tumour cell line growth inhibition, 48 h
The source made the active and inactive calls. Rule as the data show it: active = GI50 up to about 1.1 µM and inactive = higher.
Could you please pick one outcome from this set? active, inactive

C[C@@]12CCC3C1C=C1C(=O)c4cc(O)ccc4C(=O)[C@]1(O2)[C@@]3(C)C=O ... inactive
COc1cc(O)c2c(=O)cc(-c3ccc(O)cc3O)oc2c1CC=C(C)C ... inactive
O=C1NC(=O)C(C(=O)C(=O)Nc2ccc(Br)cc2)C(=O)N1 ... inactive
CCN1CCC(O)(/C=C/c2cccc(C)c2)C(C(=O)/C=C/c2cccc(C)c2)C1 (stereo not given) ... inactive
CC1=NNC(=O)C1C1(C(=O)O)CC(c2c[nH]c3ccccc23)=NC(=S)N1 (stereo not given) ... inactive
CCOC(=O)NC(Nc1cccc(F)c1)(C(F)(F)F)C(F)(F)F ... inactive
Cc1ccc([N+](=O)[O-])cc1S(=O)(=O)Nc1ccc(C2=NN(c3ccc([N+](=O)[O-])cc3[N+](=O)[O-])C(c3ccccc3O)C2)cc1 (stereo not given) ... inactive
Cc1cn(C(Cc2ccccc2)OCCO)c(=O)[nH]c1=O (stereo not given) ... inactive
O=[Se](O)O ... inactive
CC(C)(C)C1CC[C@H](O)[C@H]([C@H](O)CC2CC(=O)N(c3ccccc3)C(=O)C2)C1 (stereo not given in full) ... inactive

Q: // param item: CC(NNC(=O)c1ccc[n+]([BH2-]C#N)c1)c1ccccc1 (stereo not given) ; yields the recorded call
Result: inactive
